- EXPERIMENTAL_TARGET: CXCR6 (Homo sapiens)
- Construct: purchased Promega (in-house HiBiT-GPCR construct library, NanoBRET)
- Sequence (O00574 whole entry): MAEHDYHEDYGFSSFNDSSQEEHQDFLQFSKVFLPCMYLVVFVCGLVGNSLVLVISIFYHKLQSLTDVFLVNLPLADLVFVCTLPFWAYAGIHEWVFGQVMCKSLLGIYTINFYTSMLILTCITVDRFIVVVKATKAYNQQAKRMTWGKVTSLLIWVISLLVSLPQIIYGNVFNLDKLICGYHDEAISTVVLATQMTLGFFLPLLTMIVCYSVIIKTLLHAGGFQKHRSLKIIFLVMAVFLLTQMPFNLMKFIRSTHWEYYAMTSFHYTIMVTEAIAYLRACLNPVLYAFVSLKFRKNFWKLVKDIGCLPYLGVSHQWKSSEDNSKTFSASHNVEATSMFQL
- PROTOCOL_DESCRIPTION: NanoBRET screen HiBiT-CXCR6 in HEK293
- Type: binding
- CONDITION_NOTES: CXCR6; tracer 0.1μM
NanoBRET Fold Response below 1 gives not met; NanoBRET Fold Response at or above it gives met.

[[record]]
chemical_string = "CCCn1c(=O)c2[nH]c(-c3ccc(OCC(=O)NCCNC(=O)CCOCCNC(=O)c4ccc(CNC(=O)CCc5ccc6n5[B-](F)(F)[N+]5=C(c7ccc[nH]7)C=CC5=C6)cc4)cc3)nc2n(CCC)c1=O"
class_name = "met"

[[record]]
chemical_string = "COc1ccccc1N1CCN(CCCCN2C(=O)c3ccc(CNC(=O)CCOCCNC(=O)c4ccc(CNC(=O)CCc5ccc6n5[B-](F)(F)[N+]5=C(c7ccc[nH]7)C=CC5=C6)cc4)cc3C2=O)CC1"
class_name = "met"

[[record]]
chemical_string = "COc1ccccc1N1CCN(CCCCN2C(=O)c3ccc(CNC(=O)CCOCCOCCOCCOCCNC(=O)CCc4ccc5n4[B-](F)(F)[N+]4=C(c6ccc[nH]6)C=CC4=C5)cc3C2=O)CC1"
class_name = "not met"

